Below is a list of entries, each paired with its recorded T/C value.
Tested on: BDF1 mice, colon carcinoma 38 sc, T/C %
test protocol: NCI In Vivo Anticancer Drug Screen. Data for tumor model Colon Carcinoma 38 (subcutaneous) in B6D2F1 (BDF1) mice
experimental setup: endpoint: median tumor weight (est.); dose: 0.5 mg/kg/injection; schedule: Q07DX002 (ip); vehicle: Klucel (hydroxypropylcellulose) (HPC); higher = larger tumour
Results filed as inconclusive are left out.

| molecule | T/C |
| --- | --- |
| CC1C2CCC3C(O)C2(CC(O)C2(O)C1CC(O)C2(C)C)CC3(C)O (stereo not given) | 103 % of control |
| CC1(O)CC23CC(O)C4(O)C(CC(O)C4(C)C)C(C)(O)C2CCC1C3O (stereo not given) | 53 % of control |
| C[C@@]12C(=O)OC(=O)[C@]1(C)[C@H]1CC[C@@H]2O1 | 69 % of control |
| Nc1ncn(C2CC(O)C(CO)O2)c(=O)n1 (stereo not given) | 102 % of control |
| CCCC[C@H]1C(=O)O[C@H](C)[C@H](NC(=O)c2cccc(NC=O)c2O)C(=O)O[C@@H](C)[C@@H]1OC(=O)CC(C)C | 177 % of control |

* * *

System: BDF1 mice, colon carcinoma 38 sc, T/C %
test protocol: NCI In Vivo Anticancer Drug Screen. Data for tumor model Colon Carcinoma 38 (subcutaneous) in B6D2F1 (BDF1) mice
experimental setup: endpoint: median tumor weight (est.); dose: 3.12 mg/kg/injection; schedule: Q07DX002 (ip); vehicle: saline with Tween-80; higher = larger tumour
Records with an inconclusive call do not appear.
readout name: T/C

| molecule | result |
| --- | --- |
| CCOC(=O)c1ccc(NN=NCCF)cc1 | 86 % of control |
| CN1CCN(Cc2nc3cccc4c3c([n+]2[O-])-c2ccccc2-4)CC1 | 72 % of control |
| CCCCCCCCCCCCN1C(C)=CS/C1=C\C=C\c1scc(C)[n+]1CCCCCCCCCCCC | 79 % of control |
| O=C1C2CC=CCC2C(=O)N1SC(Cl)(Cl)Cl (stereo not given) | 107 % of control |
| C=CC(=O)N1CN(C(=O)C=C)CN(C(=O)C=C)C1 | 85 % of control |

* * *

Tested on: BDF1 mice, colon carcinoma 38 sc, T/C %
test protocol: NCI In Vivo Anticancer Drug Screen. Data for tumor model Colon Carcinoma 38 (subcutaneous) in B6D2F1 (BDF1) mice
experimental setup: endpoint: median tumor weight (est.); dose: 200.0 mg/kg/injection; schedule: Q07DX002 (ip); vehicle: saline; higher = larger tumour
Results filed as inconclusive are left out.
Below is a list of entries, each paired with its recorded T/C value.

| compound | T/C |
| --- | --- |
| CN(CO)c1nc(N(C)CO)nc(N(C)CO)n1 | 21 % of control |
| C[Si](C)(C)O/C=C1/CCOC1=O | 95 % of control |
| COC(=O)c1ccoc1 | 118 % of control |
| O=c1[nH]c(=O)n(C2CC(O)C(CO)O2)cc1C(F)(F)F (configuration not stated) | 95 % of control |
| NC(=O)c1c[se]c(C2OC(CO)C(O)C2O)n1 (configuration not stated) | 73 % of control |
| O=c1[nH]c(=O)n(C2CC(O)C(CO)O2)cc1I (configuration not stated) | 44 % of control |
| NC(=S)N/N=C/c1ccc(O)cn1 | 72 % of control |
| c1cc[c]([Sn]([NH]c2ncnc3[nH]cnc23)([NH]c2ncnc3[nH]cnc23)[c]2ccccc2)cc1 | 81 % of control |
| Nc1cccc(=O)[nH]1 | 94 % of control |
| O=Cc1ccc(C(Cl)(Cl)Cl)cc1 | 67 % of control |
| CN(C)[C@@H]1C(=O)C(C(N)=O)=C(O)[C@@]2(O)C(=O)C3=C(O)c4c(O)ccc(Cl)c4[C@@](C)(O)[C@H]3C[C@@H]12 | 93 % of control |
| CN(C)C=O | 89 % of control |

* * *

System: BDF1 mice, colon carcinoma 38 sc, T/C %
test protocol: NCI In Vivo Anticancer Drug Screen. Data for tumor model Colon Carcinoma 38 (subcutaneous) in B6D2F1 (BDF1) mice
experimental setup: endpoint: median tumor weight (est.); dose: 2.0 mg/kg/injection; schedule: Q07DX002 (ip); vehicle: water; higher = larger tumour
Records with an inconclusive call do not appear.

| compound | T/C |
| --- | --- |
| COc1cccc2c1C(=O)c1c(O)c3c(c(O)c1C2=O)C[C@@](O)(C(C)=O)C[C@@H]3OC1CC(N)C(O)C(C)O1 (stereo not given in full) | 117 % of control |
| NC(Cc1ccc(N(CCCl)CCCl)cc1)C(=O)O (stereo not given) | 97 % of control |
| COc1cccc2c1C(=O)c1c(O)c3c(c(O)c1C2=O)C[C@@](O)(/C(C)=N/NC(=O)c1ccccc1)C[C@@H]3OC1CC(N)C(O)C(C)O1 (stereo not given in full) | 100 % of control |
| CC[C@@]1(O)C[C@H](OC2CC(N(C)C)C(OC3CC(O)C(OC4CCC(=O)C(C)O4)C(C)O3)C(C)O2)c2c(cc3c(c2O)C(=O)c2c(O)ccc(O)c2C3=O)[C@H]1C(=O)OC (stereo not given in full) | 84 % of control |
| CO[C@@]12[C@H](COC(N)=O)C3=C(C(=O)C(C)=C(N)C3=O)N1C[C@@H]1N[C@@H]12 | 30 % of control |

* * *

Test system: BDF1 mice, colon carcinoma 38 sc, T/C %
test protocol: NCI In Vivo Anticancer Drug Screen. Data for tumor model Colon Carcinoma 38 (subcutaneous) in B6D2F1 (BDF1) mice
experimental setup: endpoint: median tumor weight (est.); dose: 12.5 mg/kg/injection; schedule: Q07DX002 (ip); vehicle: suspension in saline; higher = larger tumour
Protocol: The antitumor activity of compounds was measured in mice bearing transplantable tumors. Survival or tumor size were measured and the results are expressed as the measurement made in the treated group (T) divided by the measurement made in the vehicle treated control group (C). The tumor model used in this assay is Colon Carcinoma 38 (subcutaneous) in B6D2F1 (BDF1) mice
Inconclusive results are not listed.
Below is a list of entries, each paired with its recorded T/C value.
readout name: T/C

| compound | readout name | result |
| --- | --- | --- |
| CC(C)[C@](O)(C(=O)OCC1=CCN2CC[C@@H](O)[C@@H]12)[C@H](C)O | T/C | 123 % of control |
| O=C(/C=C(\Cl)C(=O)NO)NO | T/C | 82 % of control |
| CN(N=O)C(N)=O | T/C | 76 % of control |
| Cc1c2c(ccc3ccccc32)c[n+]2ccccc12 | T/C | 102 % of control |
| CCN(CC)CCC(=O)c1ccccc1 | T/C | 122 % of control |
| COc1cc2cc3cc4cc(OC)c(OC)cc4c(C)[n+]3cc2cc1OC (tested in a mixture with another compound) | T/C | 83 % of control |
| O=CC(=O)c1ccc(O)cc1 | T/C | 114 % of control |

* * *

Test system: BDF1 mice, colon carcinoma 38 sc, T/C %
test protocol: NCI In Vivo Anticancer Drug Screen. Data for tumor model Colon Carcinoma 38 (subcutaneous) in B6D2F1 (BDF1) mice
experimental setup: endpoint: median tumor weight (est.); dose: 100.0 mg/kg/injection; schedule: Q07DX002 (ip); vehicle: Klucel (hydroxypropylcellulose) (HPC); higher = larger tumour
Inconclusive results are not listed.
Below is a list of entries, each paired with its recorded T/C value.
readout name: T/C

| compound | system name | result |
| --- | --- | --- |
| CN(C1=NS(=O)(=O)N=C(N(C)c2ccccc2)O1)c1ccccc1 | BDF1 mice, colon carcinoma 38 sc, T/C % | 119 % of control |
| CCN(CC)CCOCc1cccc2c(=O)cc(-c3ccccc3)oc12 | BDF1 mice, colon carcinoma 38 sc, T/C % | 57 % of control |
| O=C(O)Cc1cc(O)cc2c(=O)cc(-c3ccccc3)oc12 | BDF1 mice, colon carcinoma 38 sc, T/C % | 52 % of control |
| CC(C)CCC[C@@H](C)[C@H]1CC[C@H]2[C@@H]3CC=C4C[C@@H](OC(=O)Cc5ccc(N(CCCl)CCCl)cc5)CC[C@]4(C)[C@H]3CC[C@]12C | BDF1 mice, colon carcinoma 38 sc, T/C % | 103 % of control |
| O=C(Cc1cccc2c(=O)cc(-c3ccccc3)oc12)OCCN1CCOCC1 | BDF1 mice, colon carcinoma 38 sc, T/C % | 115 % of control |
| CC(C)(C)C1CCCCC1 | BDF1 mice, colon carcinoma 38 sc, T/C % | 104 % of control |
| CCN(CC)CCOC(=O)Cc1cc(OC)cc2c(=O)cc(-c3ccccc3)oc12 | BDF1 mice, colon carcinoma 38 sc, T/C % | 111 % of control |
| CC12C(=O)C=CCC1=CCC1C2CCC2(O)C(=O)OC3(C)C4CC5(C)C(COC16OC23C5C6=O)C(=O)O4 (configuration not stated) | BDF1 mice, colon carcinoma 38 sc, T/C % | 86 % of control |
| O=C(Nc1ccc(N=C=S)cc1Cl)c1cc(Cl)cc(Cl)c1O | BDF1 mice, colon carcinoma 38 sc, T/C % | 79 % of control |
| C[N+](C)(C)c1cc2c(nn1)Nc1ccccc1S2 | BDF1 mice, colon carcinoma 38 sc, T/C % | 89 % of control |
| O=C1C2(Cl)C3(Cl)C4(Cl)C(Cl)(Cl)C5(Cl)[C@]3(Cl)C1(Cl)[C@]5(Cl)C24Cl (some centres not stated) | BDF1 mice, colon carcinoma 38 sc, T/C % | 44 % of control |
| C=C(NC(=O)C(=C)NC(=O)c1csc(C2=NC3c4csc(n4)C4NC(=O)c5csc(n5)C(C(C)(O)C(C)O)NC(=O)C5CSC(=N5)/C(=C/C)NC(=O)C(C(C)O)NC(=O)c5csc(n5)C3(CC2)NC(=O)C(C)NC(=O)C(=C)NC(=O)C(C)NC(=O)C(C(C)CC)NC2C=Cc3c(C(C)O)cc(nc3C2O)C(=O)OC4C)n1)C(N)=O (configuration not stated) | BDF1 mice, colon carcinoma 38 sc, T/C % | 106 % of control |
| COC(=O)C1(F)C(=O)NC(=O)NC1OC (configuration not stated) | BDF1 mice, colon carcinoma 38 sc, T/C % | 90 % of control |
| O=C1CC2(C(=O)N1CN1CCCCC1)c1ccccc1-c1ccccc12 | BDF1 mice, colon carcinoma 38 sc, T/C % | 102 % of control |
| Clc1ccc(C2SC=Cc3ccccc32)cc1 (configuration not stated) | BDF1 mice, colon carcinoma 38 sc, T/C % | 47 % of control |
| O=S(=O)(O)O | BDF1 mice, colon carcinoma 38 sc, T/C % | 78 % of control |
| Cc1c(-c2ccc(C3CCCCC3)cc2)nc2ccc(F)cc2c1C(=O)O | BDF1 mice, colon carcinoma 38 sc, T/C % | 80 % of control |
| Nc1nc(N)c2cc(CNc3ccc(C(=O)NC(CC(=O)O)CC(=O)O)cc3)ccc2n1 | BDF1 mice, colon carcinoma 38 sc, T/C % | 60 % of control |
| CN1CCc2c(c3ccccc3c3ccccc23)C1 | BDF1 mice, colon carcinoma 38 sc, T/C % | 72 % of control |
| C[C@]12CC[C@@H]3c4ccc(O)cc4CC[C@H]3[C@@H]1CC[C@@H]2O | BDF1 mice, colon carcinoma 38 sc, T/C % | 282 % of control |
| COc1ccc(-c2cc(=O)c3cccc(CC(=O)O)c3o2)cc1OC | BDF1 mice, colon carcinoma 38 sc, T/C % | 117 % of control |
| Cc1cc(=O)c2cccc(CC(=O)O)c2o1 | BDF1 mice, colon carcinoma 38 sc, T/C % | 119 % of control |

From: PubChem BioAssay AID212
